- protocol-details: Bioavailability in cynomolgus monkey at 10 mg/kg, po after 24 hrs by LC/MS/MS method
- Type: ADME, organism-based, Macaca fascicularis
- measurement-parameters: in vivo
endpoint: bioavailability (%)
Your answer should be a plain number; it is taken to be in %.

Endpoint output: bioavailability of CCCNC(=O)c1cn2ncnc(Nc3cc(C(=O)NC4CC4)ccc3C)c2c1C [BMS-582949] . Value? 16

----------
- protocol-details: Chemical stability of the compound in pH 7.4 potassium phosphate buffer at 10 uM incubated for 0.5 hrs by LC/MS/MS method
- Assay type: physicochemical
- measurement-parameters: read-out: Stability
endpoint: remaining at 0.5 h, 10 µM
Write the figure, then the unit, nothing else.

Endpoint output: remaining at 0.5 h, 10 µM of `CCCN(C(=O)OCOC(=O)Cc1ccc(O)cc1)C(=O)c1cn2ncnc(Nc3cc(C(=O)NC4CC4)ccc3C)c2c1C` . Value? 93%

----------
- protocol-details: Chemical stability of the compound in pH 7.4 potassium phosphate buffer at 10 uM incubated for 0.25 hrs by LC/MS/MS method
- Type: physicochemical
- measurement-parameters: read-out: Stability
endpoint: remaining at 0.25 h, 10 µM (%)
Your answer should be a plain number; it is taken to be in %.

Endpoint output: remaining at 0.25 h, 10 µM of `CCCN(C(=O)OCOC(=O)Cc1ccc(O)cc1)C(=O)c1cn2ncnc(Nc3cc(C(=O)NC4CC4)ccc3C)c2c1C` . Value? 100

----------
- System: Cynomolgus monkey
- protocol-details: Cmax in cynomolgus monkey assessed as plasma BMS-582949 level at 30 mg/kg, po dose equivalent to BMS-582949 after 24 hrs by LC/MS/MS method
- Type: ADME, organism-based, Macaca fascicularis
- Design: dose 30 mg/kg, route oral
- measurement-parameters: in vivo
endpoint: Cmax (µM)
Your answer should be a plain number; it is taken to be in µM.

Endpoint output: Cmax of `CCCN(C(=O)OCOC(=O)Cc1ccc(OP(=O)(O)O)cc1)C(=O)c1cn2ncnc(Nc3cc(C(=O)NC4CC4)ccc3C)c2c1C` . Value? 29

----------
- protocol-details: Stability in pH 1 solution assessed as half-life at 37 degC
- Format: physicochemical
endpoint: half-life

# annotated cases, reported half-life shown
CCCNC(=O)c1cn2ncnc(Nc3cc(C(=O)N(COP(=O)(O)O)C4CC4)ccc3C)c2c1C.CCN(C(C)C)C(C)C < 15 min
CCCNC(=O)c1cn2ncnc(N(COP(=O)([O-])O)c3cc(C(=O)NC4CC4)ccc3C)c2c1C.[Na+] < 15 min

Endpoint output: half-life of `CCCN(COP(=O)(O)O)C(=O)c1cn2ncnc(Nc3cc(C(=O)NC4CC4)ccc3C)c2c1C.CCN(C(C)C)C(C)C` . Value? < 15 min

----------
- protocol-details: Solubility of the compound in pH 1.2 solution at room temperature
- Format: physicochemical
endpoint: solubility (µg/mL)
Your answer should be a plain number; it is taken to be in µg/mL.

Endpoint output: solubility of `CCCN(C(=O)OCOC(=O)Cc1ccc(OP(=O)(O)O)cc1)C(=O)c1cn2ncnc(Nc3cc(C(=O)NC4CC4)ccc3C)c2c1C` . Value? 100

----------
- protocol-details: Cmax in cynomolgus monkey at 10 mg/kg, po after 24 hrs by LC/MS/MS method
- Assay type: ADME, organism-based, Macaca fascicularis
- Set-up: dose 10 mg/kg, route oral
- measurement-parameters: in vivo
endpoint: Cmax (nM)
Your answer should be a plain number; it is taken to be in nM.

Endpoint output: Cmax of `CCCNC(=O)c1cn2ncnc(Nc3cc(C(=O)NC4CC4)ccc3C)c2c1C` . Value? 1000

----------
- tested-system: Alkaline phosphatase, placental type (Homo sapiens)
- protocol-details: Stability assessed as human placental ALP-mediated drug degradation by measuring compound remaining level in pH 7.5 tris buffer at 10 uM incubated for 0.5 hrs in presence of HALT phosphatase inhibitor cocktail by LC/MS/MS method
- Assay type: ADME
- measurement-parameters: pH 7.5, with HALT phosphatase inhibitor cocktail, read-out: Stability
endpoint: remaining at 0.5 h, 10 µM (%)
Your answer should be a plain number; it is taken to be in %.

Endpoint output: remaining at 0.5 h, 10 µM of `CCCN(C(=O)OCOC(=O)Cc1ccc(OP(=O)(O)O)cc1)C(=O)c1cn2ncnc(Nc3cc(C(=O)NC4CC4)ccc3C)c2c1C` . Value? 94

----------
- protocol-details: AUC in Sprague-Dawley rat at 100 mg/kg, po after 24 hrs by LC/MS/MS method
- Type: ADME, organism-based
- Design: time < 24 hr, dose 100 mg/kg, route oral
- measurement-parameters: in vivo
endpoint: AUC at 24 h (µM·h)
Your answer should be a plain number; it is taken to be in µM·h.

Endpoint output: AUC at 24 h of `CCCNC(=O)c1cn2ncnc(Nc3cc(C(=O)NC4CC4)ccc3C)c2c1C` . Value? 3

----------
Entries and their measured half-life follow.
- protocol-details: Stability in pH 7.4 solution assessed as half-life at 37 degC
- Format: physicochemical
Your answer should be a plain number; it is taken to be in h.

# annotated cases, reported half-life shown
CCCN(COP(=O)(O)O)C(=O)c1cn2ncnc(Nc3cc(C(=O)NC4CC4)ccc3C)c2c1C.CCN(C(C)C)C(C)C 54
CCCNC(=O)c1cn2ncnc(N(COP(=O)([O-])O)c3cc(C(=O)NC4CC4)ccc3C)c2c1C.[Na+] 20
CCCN(C(=O)OCOC(=O)Cc1ccc(OP(=O)(O)O)cc1)C(=O)c1cn2ncnc(Nc3cc(C(=O)NC4CC4)ccc3C)c2c1C 37

Let's switch to this compound now.
Endpoint output: half-life of `CCCNC(=O)c1cn2ncnc(Nc3cc(C(=O)N(COP(=O)(O)O)C4CC4)ccc3C)c2c1C.CCN(C(C)C)C(C)C` . Value? 257

----------
- tested-system: Alkaline phosphatase, placental type (Homo sapiens, UniProt P05187)
- Sequence (P05187 whole entry): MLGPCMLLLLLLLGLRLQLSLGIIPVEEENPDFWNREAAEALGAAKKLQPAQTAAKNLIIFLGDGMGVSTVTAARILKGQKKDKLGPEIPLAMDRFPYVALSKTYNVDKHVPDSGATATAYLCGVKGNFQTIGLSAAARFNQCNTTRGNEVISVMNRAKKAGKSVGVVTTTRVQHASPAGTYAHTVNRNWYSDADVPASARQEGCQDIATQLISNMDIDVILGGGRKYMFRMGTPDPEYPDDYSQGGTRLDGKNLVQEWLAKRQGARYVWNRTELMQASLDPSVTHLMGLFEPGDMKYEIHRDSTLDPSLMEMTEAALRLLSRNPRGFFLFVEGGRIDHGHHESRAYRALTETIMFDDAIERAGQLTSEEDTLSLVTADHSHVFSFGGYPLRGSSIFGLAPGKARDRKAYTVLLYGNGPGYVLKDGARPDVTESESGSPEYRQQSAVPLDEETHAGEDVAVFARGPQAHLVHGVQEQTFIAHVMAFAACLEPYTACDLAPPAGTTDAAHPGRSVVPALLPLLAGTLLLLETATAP
- protocol-details: Stability assessed as human placental ALP-mediated drug degradation by measuring compound remaining level in pH 7.5 tris buffer at 10 uM incubated for 1 hr by LC/MS/MS method
- Format: ADME
- measurement-parameters: read-out: Stability
endpoint: remaining at 1 h, 10 µM (%)
Your answer should be a plain number; it is taken to be in %.

Endpoint output: remaining at 1 h, 10 µM of `CCCN(C(=O)OCOC(=O)Cc1ccc(OP(=O)(O)O)cc1)C(=O)c1cn2ncnc(Nc3cc(C(=O)NC4CC4)ccc3C)c2c1C` . Value? 10.9

----------
- tested-system: Alkaline phosphatase, placental type (Homo sapiens, UniProt P05187)
- protocol-details: Stability assessed as human placental ALP-mediated drug degradation by measuring compound remaining level in pH 7.5 tris buffer at 10 uM incubated for 1 hr in presence of HALT phosphatase inhibitor cocktail by LC/MS/MS method
- Format: ADME
- measurement-parameters: pH 7.5, with HALT phosphatase inhibitor cocktail
endpoint: remaining at 1 h, 10 µM (%)
Your answer should be a plain number; it is taken to be in %.

Give remaining at 1 h, 10 µM (Alkaline phosphatase, placental type (Homo sapiens, UniProt P05187)) of the following compound: `CCCN(C(=O)OCOC(=O)Cc1ccc(OP(=O)(O)O)cc1)C(=O)c1cn2ncnc(Nc3cc(C(=O)NC4CC4)ccc3C)c2c1C` 64.5

----------
- protocol-details: Bioavailability in Sprague-Dawley rat at 10 mg/kg, po after 24 hrs by LC/MS/MS method
- Assay type: ADME, organism-based
- measurement-parameters: in vivo
endpoint: bioavailability (%)
Your answer should be a plain number; it is taken to be in %.

Endpoint output: bioavailability of `CCCNC(=O)c1cn2ncnc(Nc3cc(C(=O)NC4CC4)ccc3C)c2c1C` . Value? 31
